Molecular target: human recombinant mGluR5 (Homo sapiens, UniProt P41594)
Sequence (P41594 21-1212): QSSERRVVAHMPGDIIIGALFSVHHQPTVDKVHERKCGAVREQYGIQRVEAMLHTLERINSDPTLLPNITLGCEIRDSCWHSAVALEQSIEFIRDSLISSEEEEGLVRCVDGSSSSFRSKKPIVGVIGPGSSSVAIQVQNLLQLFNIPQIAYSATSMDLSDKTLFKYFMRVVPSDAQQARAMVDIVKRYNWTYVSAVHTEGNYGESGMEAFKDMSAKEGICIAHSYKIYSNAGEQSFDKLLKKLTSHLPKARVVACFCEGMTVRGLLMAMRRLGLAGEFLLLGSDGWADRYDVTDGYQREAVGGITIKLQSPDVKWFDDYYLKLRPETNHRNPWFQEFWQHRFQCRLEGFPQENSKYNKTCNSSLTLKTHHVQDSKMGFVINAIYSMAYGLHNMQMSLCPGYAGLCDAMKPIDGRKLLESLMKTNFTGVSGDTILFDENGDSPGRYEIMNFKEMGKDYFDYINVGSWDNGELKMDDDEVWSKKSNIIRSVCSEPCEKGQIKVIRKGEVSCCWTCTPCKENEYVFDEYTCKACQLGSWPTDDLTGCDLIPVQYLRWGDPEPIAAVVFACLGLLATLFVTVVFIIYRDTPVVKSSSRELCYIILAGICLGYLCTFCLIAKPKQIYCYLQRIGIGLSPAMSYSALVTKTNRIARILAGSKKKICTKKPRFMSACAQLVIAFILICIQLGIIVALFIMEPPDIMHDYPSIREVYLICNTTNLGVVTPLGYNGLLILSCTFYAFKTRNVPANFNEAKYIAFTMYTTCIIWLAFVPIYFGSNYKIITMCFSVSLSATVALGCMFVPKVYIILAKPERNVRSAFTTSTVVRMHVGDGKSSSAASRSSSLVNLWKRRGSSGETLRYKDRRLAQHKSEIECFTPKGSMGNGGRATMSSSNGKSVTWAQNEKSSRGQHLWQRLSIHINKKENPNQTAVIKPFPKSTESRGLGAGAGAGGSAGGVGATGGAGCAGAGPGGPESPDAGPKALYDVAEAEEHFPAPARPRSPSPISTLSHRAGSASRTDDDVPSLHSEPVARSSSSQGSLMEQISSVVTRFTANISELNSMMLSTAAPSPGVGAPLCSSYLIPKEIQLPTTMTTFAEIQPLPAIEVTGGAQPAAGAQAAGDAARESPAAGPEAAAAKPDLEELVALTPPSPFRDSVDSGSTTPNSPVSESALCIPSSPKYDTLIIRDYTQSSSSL
Experiment: positive modulation of mGluR5, calcium based FLIPR assay
Settings: HEK 293 cell line expressing human recombinant mGluR5; EC50 of the modulation from peak Ca fluorescence signal after glutamate at approx. 5% basal stimulation
pEC50: −log10 of the molar value.
quantity_measured: pEC50

1) Cc1cc(-c2cc(-c3ccccc3)n(CC(=O)N3CCN(C(=O)Oc4ccccc4)CC3)n2)ccc1F; 7.35
2) Cc1cc(-c2cc(-c3ccccc3)n(CC(=O)N3CCN(c4nccs4)CC3)n2)ccc1F; 8.22
3) CCc1cc(-c2cccc(Cl)c2)nn1CC(=O)N1CCN(c2nnc(C)o2)CC1; 6.39
4) COc1nc2c(s1)CCN(C(=O)Cn1nc(-c3ccc(F)c(C)c3)cc1-c1ccccc1)CC2; 7.46

(a) CCc1cc(-c2ccc(F)c(C)c2)nn1CC(=O)N1CCC(c2cccc(OC)c2)CC1
(b) Cc1nc2c(s1)CCN(C(=O)Cn1nc(-c3ccc(F)c(C)c3)cc1C)CC2
Request: # min-compare on pEC50 between a and b Output the label that corresponds to your choice.
Result: a
(a: 6.24, b: 7.49)

====

Target: human recombinant mGluR5 (Homo sapiens)
Experiment: positive modulation of mGluR5, calcium based FLIPR assay
Details: HEK 293 cell line expressing human recombinant mGluR5; EC50 of the modulation from peak Ca fluorescence signal after glutamate at approx. 5% basal stimulation
quantity_measured: EC50 (nM)

Past entries and their recorded results:
1) Cc1cnc(C2=CCN(C(=O)Cn3nc(-c4cccc(Cl)c4)cc3-c3ccccc3)CC2)o1; 27
2) Cc1nnc(N2CCN(C(=O)Cn3nc(-c4cccc(C#N)c4)cc3-c3ccccc3)CC2)o1; 82
3) Cc1cc(-c2cc(-c3ccccc3)n(CC(=O)N3CCC(C)(c4nnc(C(C)C)o4)CC3)n2)ccc1F; 693
4) Cc1noc(N2CCN(C(=O)Cn3nc(-c4ccc(F)c(C)c4)cc3-c3ccccc3)CC2)n1; 20
5) Cc1nc2c(s1)CCN(C(=O)Cn1nc(-c3ccc(F)c(C)n3)cc1-c1ccccc1)CC2; 30
6) CCc1cc(-c2ccc(F)c(C)c2)nn1CC(=O)N1CCc2nc(C)sc2C1; 122
7) Cc1nc(N2CCN(C(=O)Cn3nc(-c4ccc(F)c(C)c4)cc3C)CC2)no1; 108
8) Cc1cc(-c2cc(-c3ccccc3)n(CC(=O)N3CCc4cn[nH]c4CC3)n2)ccc1F; 31

(I) CCc1nnc(C2CCN(C(=O)Cn3nc(-c4ccc(F)c(C)c4)cc3-c3ccccc3)CC2)o1
(II) CCCc1cc(-c2ccc(F)c(C)n2)nn1CC(=O)N1Cc2nc(C)sc2C1
Request: # min-compare on EC50 between I and II Output the label that corresponds to your choice.
Result: I

(P) CCc1cc(-c2ccc(F)c(C)c2)nn1CC(=O)N1CCc2cn[nH]c2CC1
(Q) Cc1nc2c(s1)CN(C(=O)Cn1nc(-c3ccc(C)c(F)c3)cc1-c1ccccc1)C2
Request: # min-compare on EC50 between P and Q Output the label that corresponds to your choice.
Result: Q

====

Target: human recombinant mGluR5 (Homo sapiens, UniProt P41594)
Test: positive modulation of mGluR5, calcium based FLIPR assay
Details: HEK 293 cell line expressing human recombinant mGluR5; EC50 of the modulation from peak Ca fluorescence signal after glutamate at approx. 5% basal stimulation
pEC50: −log10 of the molar value.
quantity_measured: pEC50

(P) Cc1nnc(C2CCN(C(=O)Cn3nc(-c4cccc(Cl)c4)cc3-c3ccccc3)CC2)o1
(Q) CCc1cc(-c2cccc(C#N)c2)nn1CC(=O)N1CCN(c2nnc(C)o2)CC1
Request: # min-compare on pEC50 between P and Q Output the label that corresponds to your choice.
Result: Q

(I) COC(=O)c1ccc2c(c1)CCN(C(=O)Cn1nc(-c3ccc(F)c(C)c3)cc1-c1ccccc1)CC2
(II) CCc1cc(-c2cccc(Cl)c2)nn1CC(=O)N1CCc2nc(N)sc2CC1
Request: Would you let me know which has the greater pEC50 value, I or II ? Output the label that corresponds to your choice.
Result: I
(I: 7.54, II: 6.81)

(I) Cc1nnc(C2=CCN(C(=O)Cn3nc(-c4ccc(F)c(C)c4)cc3-c3ccccc3)CC2)o1
(II) Nc1nc2c(s1)CCN(C(=O)Cn1nc(-c3ccccc3)cc1-c1ccccc1)CC2
(III) Cc1nc2c(s1)CN(C(=O)Cn1nc(-c3ccc(F)c(C)c3)cc1-c1ccccc1)CC2
Request: Sort these compounds on pEC50 so the largest reading comes first. Reply with the labels, ordered as the question asks.
Result: I, III, II
(I: 8.10, III: 7.66, II: 6.78)

(A) Cc1nc2c(s1)CN(C(=O)Cn1nc(-c3ccc(C(F)F)cc3)cc1-c1ccccc1)C2
(B) CCc1cc(-c2cccc(C)c2)nn1CC(=O)N1CC=C(c2cc(OC)ncn2)CC1
(C) CCc1cc(-c2cccc(C)c2)nn1CC(=O)N1Cc2nc(C)sc2C1
(D) COc1cc(-c2cc(-c3ccccc3)n(CC(=O)N3CC=C(c4ncc(C)o4)CC3)n2)ccc1F
Request: Arrange these 4 compounds in increasing order of pEC50. Reply with the labels, ordered as the question asks.
Result: C, B, A, D

// provenance: patent US8741892B2
